# RUN DESCRIPTION: clinical
# CONDITION CONTEXT: human, in vivo, inhaled or intranasal, 30 mg
QUANTITY MEASURED: AUC(0-t) (ng·h/mL)
Number in ng·h/mL, nothing else.

For the molecule Cc1ccc(NC(=O)c2ccc(CN3CCN(C)CC3)cc2)cc1Nc1nccc(-c2cccnc2)n1 [AV-101, imatinib] , give its reported AUC(0-t).
1280

====

# RUN DESCRIPTION: clinical
# CONDITION CONTEXT: human, in vivo, inhaled or intranasal, 10 mg
QUANTITY MEASURED: Cmax (ng/mL)
Number in ng/mL, nothing else.

For the compound Cc1ccc(NC(=O)c2ccc(CN3CCN(C)CC3)cc2)cc1Nc1nccc(-c2cccnc2)n1 [AV-101, imatinib] , give its reported Cmax.
20.2
